- Test Description: Cell Viability - LYMP2-025 (AID 976);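 further: cells exposed to compound for 24 h at 37 °C; plate controls were DMSO only for no effect and tetraoctylammonium bromide control for full effect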
- Test Context: LYMP2-025 lymphoblastoid cell viability; series mostly up to 92.2 µM
Results filed as inconclusive are left out. Activity calls are given as the source filed them. The call rests on the fitted dose curve; in most records, active means well fitted cell-killing curve with a large enough effect; inconclusive means small, poorly fitted or top-dose-only effect; inactive means flat fitted curve, though single readings scatter.
Measure Name: outcome

Reference set (5 entries):
| Smiles | outcome |
| --- | --- |
| CCSC(=O)Cl | inactive |
| O=C(O)COc1ccc(Cl)cc1Cl | inactive |
| c1ccc(N=Nc2ccccc2)cc1 | inactive |
| Cc1ccccc1N | inactive |
| CCOP(=S)(OCC)Oc1ccc([N+](=O)[O-])cc1 | inactive |

Problem: Quick check: outcome of Clc1nc(Cl)nc(Nc2ccccc2Cl)n1 ?
Result: inactive

Problem: Reported outcome for C=C(C)C#N : what is it?
Result: inactive

Problem: Dear colleague, I am looking for the recorded outcome of the following molecule: CCCCOCCOP(=O)(OCCOCCCC)OCCOCCCC
Result: inactive

Problem: outcome lookup needed for CCC[CH2][Sn]([Cl])([Cl])[Cl] , thanks.
Result: inactive

Problem: I'd like to know its outcome. The molecule in question is CC(C)(C)OO
Result: inactive

Problem: # lookup: outcome of O=[N+]([O-])c1ccc(Cl)c(Cl)c1
Result: inactive

Problem: Given c1ccc2c(c1)CCCC2 , state its recorded outcome.
Result: inactive

Problem: Recorded outcome for Nc1c(Cl)c(Cl)nc(C(=O)O)c1Cl , please?
Result: inactive

Problem: So what's the measured outcome for this one? Nc1ccccc1Cl
Result: inactive

---

- Tested On: Rap guanine nucleotide exchange factor 3 (Homo sapiens) (UniProt O95398)
- Test Description: Counterscreen qHTS for agonist of cAMP-regulated guanine nucleotide exchange factor 3 (EPAC1) (AID 1645889); further: % of control where 0% means no effect; nearly all actives have a fitted effect of over 40% in size
- Test Context: EPAC1 Rap1B-BODIPY-GDP exchange, fluorescence; series mostly up to 154 µM
Inconclusive results are not listed. Activity calls are given as the source filed them. Calls come from the whole dose curve; as a rule, active = well fitted activation curve with a large enough effect; inconclusive = small, poorly fitted or top-dose-only effect, or another doubt; inactive = no such curve, though single readings can be large or run the other way.
Measure Name: activation

A selection of reference data follows.
| Molecule | activation |
| --- | --- |
| O=C(c1cc(-c2ccc(Cl)cc2)n(-c2ccc(Cl)cc2Cl)n1)N1CCOCC1 | inactive |
| Cc1oc(-c2ccccc2)nc1CN1C(=O)CN=C(c2ccccc2)c2ccccc21 | 28.8% [at 30.8 µM] (inactive) |
| COc1ccc(-n2nnnc2C(c2ccccc2OC(F)(F)F)N2CCC(n3c(=O)[nH]c4ccccc43)CC2)cc1 (stereo unspecified) | 2.08% [at 30.8 µM] (inactive) |
| Nc1c2c(nc3sc4c(c13)CCCC4)CCCC2 | 3.23% [at 30.8 µM] (inactive) |
| c1ccc(C(c2ccccc2)c2cccnc2)cc1 | inactive |
| COc1ccc(OCC(=O)N2CCN(CC3CC4C=CC3C4)CC2)cc1 (stereo unspecified) | 5.29% [at 30.8 µM] (inactive) |
| O=C1NC(=S)N(c2ccccc2)C(=O)/C1=C/c1ccco1 | inactive |
| COc1ccc(N2C(=O)/C(=C/C=C/c3ccccc3[N+](=O)[O-])C(=O)NC2=S)cc1 | 4.75% [at 30.8 µM] (inactive) |
| CCCCN1C(=O)/C(=C\c2ccco2)C(=O)N(CCc2ccccc2)C1=O | inactive |
| COP(=O)(/C=C(\Cl)c1ccccc1)/C=C(\Cl)c1ccccc1 | inactive |

Problem: What does the record list as activation for Cn1cc(C=C2C(=O)NC(=O)NC2=O)c2ccccc21 ?
Result: inactive

Problem: activation lookup needed for O=c1nc(/C=C/c2ccc(Cl)cc2Cl)cc(C(F)(F)F)[nH]1 , thanks.
Result: 4.81% [at 30.8 µM] (inactive)

Problem: Please give the measured activation for this molecule: CC(C)c1ccc(C(c2c(O)c3ccccc3oc2=O)c2c(O)c3ccccc3oc2=O)cc1
Result: inactive

Problem: Which activation reading was recorded for the molecule COC(=O)C1=C(c2ccc3ccccc3c2)C[C@@H]2CC[C@H]1N2C(=O)NC1CC1 ?
Result: inactive

Problem: activation lookup needed for Cn1cccc1/C=C1\C(=O)NC(=O)N(Cc2ccccc2Cl)C1=O , thanks.
Result: inactive

Problem: Entry under review: Cc1cccc(N2C(=O)NC(=O)/C(=C\c3cccn3-c3ccc(Cl)cc3)C2=O)c1 . Reported activation?
Result: inactive
